The origin of these recorded values is the supplement of paper PMC7877785.

Test: self-splicing fitness, log relative to wild type (ln ratio); higher = more splicing; Tetrahymena group I intron in knt gene, E. coli kanamycin selection, DiMSum; sequences stand for … in CUCUCU…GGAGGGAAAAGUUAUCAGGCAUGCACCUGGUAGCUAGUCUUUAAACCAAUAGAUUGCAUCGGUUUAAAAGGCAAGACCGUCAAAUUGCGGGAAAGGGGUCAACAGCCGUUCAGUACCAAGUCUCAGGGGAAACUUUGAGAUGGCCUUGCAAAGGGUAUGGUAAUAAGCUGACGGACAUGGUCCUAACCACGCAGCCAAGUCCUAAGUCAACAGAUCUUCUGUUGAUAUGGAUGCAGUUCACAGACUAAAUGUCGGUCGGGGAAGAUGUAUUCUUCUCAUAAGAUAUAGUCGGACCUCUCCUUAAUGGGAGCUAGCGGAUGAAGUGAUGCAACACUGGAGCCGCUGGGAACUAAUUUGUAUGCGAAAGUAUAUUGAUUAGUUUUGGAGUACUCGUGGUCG;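 further: selection with 25 µg/mL kanamycin versus none on LB agar overnight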
Details: 37 °C
Each item that follows carries a reported self-splicing fitness (ln).
// no unit string in output, number only

A selection of reference data follows.
1) CGCCAGCAAUAUUACGCUGG | -2.2
2) ACGUAGCAAUAUUACGAUCU | 0.356
3) UCACAGCAAUAUUACGAUAG | -1.22
4) GGCAAGCAAUAUUACGAAUG | -1.45
5) CCUCAGCAAUAUUACGACUA | -3.06
6) GGAUAGCAAUAUUACGCCGU | -0.441
7) AGUGAGCAAUAUUACGUGCC | -1.3

Which self-splicing fitness (ln) reading was recorded for the sequence GGGGAGCAAUAUUACGUCGC ?
-0.104

----------
Test: self-splicing fitness, log relative to wild type (ln ratio); higher = more splicing; Tetrahymena group I intron in knt gene, E. coli kanamycin selection, DiMSum; sequences stand for … in CUCUCU…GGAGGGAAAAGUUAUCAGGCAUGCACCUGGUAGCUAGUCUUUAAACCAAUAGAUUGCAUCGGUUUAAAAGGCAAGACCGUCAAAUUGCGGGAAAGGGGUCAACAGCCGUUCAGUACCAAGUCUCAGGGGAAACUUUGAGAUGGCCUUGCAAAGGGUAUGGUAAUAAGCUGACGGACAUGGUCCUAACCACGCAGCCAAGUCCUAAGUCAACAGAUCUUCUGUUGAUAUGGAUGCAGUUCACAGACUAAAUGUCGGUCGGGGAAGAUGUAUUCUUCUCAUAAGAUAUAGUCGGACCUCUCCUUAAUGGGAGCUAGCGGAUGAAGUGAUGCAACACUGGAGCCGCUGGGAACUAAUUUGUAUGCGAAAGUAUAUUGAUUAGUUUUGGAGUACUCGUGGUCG
Conditions: 37 °C
In this scheme, each record receives a class according to its self-splicing fitness (ln); the ranges are A = under -2, B = from -2 up to -1, C = -1 and over

1) GGCAAGCAAUAUUACGAUAC | C
2) AACGAGCAAUAUUACGGACG | B

Classify this sequence: UGCCAGCAAUAUUACGACCC
B

Same again, this time with CAGUAGCAAUAUUACGGUUC
A

Same again, this time with AAUAAGCAAUAUUACGAUUC
B

Same again, this time with UAAAAGCAAUAUUACGCACC
B

Same again, this time with ACGAAGCAAUAUUACGCAGC
C

Same again, this time with UAAUAGCAAUAUUACGCACA
C

Same again, this time with CAUGAGCAAUAUUACGGUUA
A

Same again, this time with AAAUAGCAAUAUUACGGGGG
A

----------
Each item that follows carries a reported self-splicing fitness (ln).
Experiment: self-splicing fitness, log relative to wild type (ln ratio); higher = more splicing; Tetrahymena group I intron in knt gene, E. coli kanamycin selection, DiMSum; sequences stand for … in CUCUCU…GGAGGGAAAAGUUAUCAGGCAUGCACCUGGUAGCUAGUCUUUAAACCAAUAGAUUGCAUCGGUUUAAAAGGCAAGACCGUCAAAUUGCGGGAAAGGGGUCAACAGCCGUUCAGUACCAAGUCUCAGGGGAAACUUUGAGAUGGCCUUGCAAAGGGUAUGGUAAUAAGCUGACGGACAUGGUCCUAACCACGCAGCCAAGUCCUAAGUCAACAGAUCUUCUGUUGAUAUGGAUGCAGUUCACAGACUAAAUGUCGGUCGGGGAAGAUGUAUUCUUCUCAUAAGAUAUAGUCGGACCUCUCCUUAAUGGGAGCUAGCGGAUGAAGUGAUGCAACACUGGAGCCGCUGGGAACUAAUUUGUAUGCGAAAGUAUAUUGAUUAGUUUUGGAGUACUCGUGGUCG
Details: 30 °C

A selection of reference data follows.
1. AUUUAGCAAUAUUACGCCGC | -1.8
2. GACGAGCAAUAUUACGGAAG | -2.39
3. AGAAAGCAAUAUUACGCCCA | 0.247
4. GCCGAGCAAUAUUACGUAGC | -2.02
5. CGUGAGCAAUAUUACGAUAG | -1.13
6. UGCCAGCAAUAUUACGCAGA | -2.81

Which self-splicing fitness (ln) reading was recorded for the sequence AGACAGCAAUAUUACGUGGA ?
-3.96

Same again, this time with GCCCAGCAAUAUUACGUCUC
-1.3

Same again, this time with CAUAAGCAAUAUUACGUGUA
-2.6

Same again, this time with AAAGAGCAAUAUUACGCGCU
-2.96

Same again, this time with GGGUAGCAAUAUUACGUCGA
-0.508

Same again, this time with AGGCAGCAAUAUUACGAAUU
-1.29

Same again, this time with CCUCAGCAAUAUUACGUACC
-4.27

----------
Test: self-splicing fitness, log relative to wild type (ln ratio); higher = more splicing; Tetrahymena group I intron in knt gene, E. coli kanamycin selection, DiMSum; sequences stand for … in CUCUCU…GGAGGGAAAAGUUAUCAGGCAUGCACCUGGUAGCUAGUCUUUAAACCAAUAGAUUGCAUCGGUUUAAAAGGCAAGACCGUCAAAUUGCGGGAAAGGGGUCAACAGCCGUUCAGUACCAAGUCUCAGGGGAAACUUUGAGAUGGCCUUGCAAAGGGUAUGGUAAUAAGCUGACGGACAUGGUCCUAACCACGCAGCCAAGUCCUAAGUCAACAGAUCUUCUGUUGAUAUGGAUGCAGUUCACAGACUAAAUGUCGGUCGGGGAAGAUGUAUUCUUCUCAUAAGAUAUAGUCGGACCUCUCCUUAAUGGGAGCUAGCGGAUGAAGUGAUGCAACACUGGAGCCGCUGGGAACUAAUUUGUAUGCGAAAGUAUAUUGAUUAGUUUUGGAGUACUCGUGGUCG
Settings: 37 °C
RESULT TYPE: self-splicing fitness (ln)

A selection of reference data follows.
1) AUGUAGCAAUAUUACGGGGA | -2.48
2) GCGCAGCAAUAUUACGUUGC | -2.51
3) CGUCAGCAAUAUUACGUCCG | -0.273
4) GUAUAGCAAUAUUACGCCGA | -0.946
5) CAAUAGCAAUAUUACGAUUA | -0.352
6) CUCAAGCAAUAUUACGAGCU | -4.08

Which self-splicing fitness (ln) reading was recorded for the sequence AGCGAGCAAUAUUACGAUAU ?
-1.99

Same again, this time with GAGUAGCAAUAUUACGAGAG
-3.64

----------
Assay: self-splicing fitness, log relative to wild type (ln ratio); higher = more splicing; Tetrahymena group I intron in knt gene, E. coli kanamycin selection, DiMSum; sequences stand for … in CUCUCU…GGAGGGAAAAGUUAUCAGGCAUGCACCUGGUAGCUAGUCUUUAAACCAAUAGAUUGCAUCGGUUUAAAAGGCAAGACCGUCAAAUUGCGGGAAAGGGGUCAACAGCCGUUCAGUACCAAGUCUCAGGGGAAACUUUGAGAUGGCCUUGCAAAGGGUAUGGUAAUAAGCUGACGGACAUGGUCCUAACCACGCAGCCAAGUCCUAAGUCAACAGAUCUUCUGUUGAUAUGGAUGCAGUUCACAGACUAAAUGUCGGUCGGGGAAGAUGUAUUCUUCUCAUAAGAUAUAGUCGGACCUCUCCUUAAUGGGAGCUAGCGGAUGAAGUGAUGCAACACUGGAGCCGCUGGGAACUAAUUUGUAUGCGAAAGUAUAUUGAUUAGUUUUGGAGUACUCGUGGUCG
Details: 37 °C
Each item that follows carries a reported self-splicing fitness (ln).
// no unit string in output, number only

A selection of reference data follows.
1. CUACAGCAAUAUUACGCCUC | -0.901
2. ACGUAGCAAUAUUACGGGCG | -1.07
3. AUCAAGCAAUAUUACGAGCC | -1.23
4. UUUCAGCAAUAUUACGUCUU | -1.36

Which self-splicing fitness (ln) reading was recorded for the sequence GGCAAGCAAUAUUACGUGGC ?
-1.28

Same again, this time with CUCCAGCAAUAUUACGCCAA
-2.07
